system: NCI-H929 complex spheroids, viability % test/control; assay: Anticancer human tumor NCI-H929 cell line growth inhibition [RAS]; settings: second compound 0.0949 µM; first compound 10 µM; stronger effect = lower value;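 further: compound exposure lasted seven days before viability was read; 100% = DMSO vehicle control viability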
Consider the following compounds; for each one, report its viability, T/C.
Report only the number, with the unit % understood.

Query: Provide one value: measured viability, T/C of CC1(O)CCCC1n1c(=O)c(C(F)F)cc2cnc(NC3CCN(S(C)(=O)=O)CC3)nc21 (centres undefined) + CCn1c(-c2cc(N3CCN(C)CC3)cnc2C(C)OC)c2c3cc(ccc31)-c1csc(n1)CC(NC(=O)C1CC1C)C(=O)N1CCCC(N1)C(=O)OCC(C)(C)C2
Reply: 0.09

Query: Note viability, T/C for the compound shown: CC(C)NCC(C(=O)N1CCN(c2ncnc3c2C(C)CC3O)CC1)c1ccc(Cl)cc1 (centres undefined) + CCn1c(-c2cccnc2C(C)OC)c2c3cc(ccc31)N1CCOC(CC(NC(=O)C(C(C)C)N(C)C(=O)C3(F)CCN(C(=O)C#CC(C)(C)N(C)C)CC3)C(=O)N3CCCC(N3)C(=O)OCC(C)(C)C2)C1
Reply: 1.65

Query: Provide only the value of recorded viability, T/C for CC(Nc1ccc2c(c1)OCCn1cc(N3C(=O)OCC3C(F)F)nc1-2)C(N)=O (centres undefined) + CCn1c(-c2cc(N3CCN(C)CC3)cnc2C(C)OC)c2c3cc(ccc31)-c1csc(n1)CC(NC(=O)C1CC1C)C(=O)N1CCCC(N1)C(=O)OCC(C)(C)C2
Reply: 0.1

Query: Consider the compound C[C@@H](NC(=O)c1ncnc(N)c1Cl)c1ncc(C(=O)Nc2cc(C(F)(F)F)c(Cl)cn2)s1 + CCn1c(-c2cccnc2C(C)OC)c2c3cc(ccc31)N1CCOC(CC(NC(=O)C(C(C)C)N(C)C(=O)C3(F)CCN(C(=O)C#CC(C)(C)N(C)C)CC3)C(=O)N3CCCC(N3)C(=O)OCC(C)(C)C2)C1 and give its recorded viability, T/C.
Reply: 105

Numbers sourced from PubChem BioAssay AID2060884.
